- test-system: T1, human CLDN4 protein (human, UniProt O14493 1-209)
- T1 construct: whole, on cells; also called hCLDN4; claudin 4
- T1 sequence (looked up): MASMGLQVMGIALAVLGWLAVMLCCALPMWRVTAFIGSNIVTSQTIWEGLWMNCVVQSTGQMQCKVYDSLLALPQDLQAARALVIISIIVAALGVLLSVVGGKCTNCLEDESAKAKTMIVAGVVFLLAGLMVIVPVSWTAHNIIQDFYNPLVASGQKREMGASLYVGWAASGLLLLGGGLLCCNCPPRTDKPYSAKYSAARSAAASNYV
- assay-explanation: flow cytometry on cells overexpressing human CLDN4; 10 µg/mL purified antibody, Alexa 647 anti-mouse secondary; single point
Collected MFI values appear next to each entry.
Respond with the number and no other words.

Would you please look over these solved cases?
SC27.106 (antibody, V domains shown, also called SC27.106 mouse monoclonal anti-CLDN antibody) VH: EVQLQQSGPELVKPGASVKISCKTSGYTFTEYTMHWVKQSHGKSLEWIGGINPNNGGTNYNQKFKGKATLTVDKSSSTAYMELRSLTSEDSAVYYCARRLITYYAMDYWGQGTSVTVSS VL: DIQMTQSSSSFSVSLGDRVTITCKASEDIYNRLAWYQQKPGNAPRLLICGATSLETGVPSRFSGSGSGKDYTLSITSLQTEDVATYYCQQYWSTPLTFGAGTKLELK; 1990
SC27.103 mouse monoclonal anti-CLDN antibody (antibody, V domains shown) VH: EVHLQQSGPELVKPGGSMKISCKASGYSFTGYTMNWVKQSHGKNLEWIGLFNPYNGGTSYNQKFKGKATLTVDKSSSTAYMELLSLTSEDSAVYYCARCYRYDGLDYWGQGTTLTVSS VL: QIVLTQSPAIMSASLGERVTMTCTASSSVSSSYLHWYQQKPGSSPTLWIYRTSDLASGVPARFSGSGSGTSYSLTISSMEAEDAATYYCHQYHRSPWTFGGGTRLEIK; 75
SC27.204 mouse monoclonal anti-CLDN antibody (antibody, V domains shown) VH: EVKVLESGGGLVQPGGSLKLSCAASGFDFSRYWMSWVRQAPGKGLEWIGEINPDSSTINYTPSLKAKFIISRDNAKNTLYLQMSKVRSEDTALYYCTGPAYWGQGTLVTVSA VL: DIVMTQSQKFMSTSVGDRVSVACKAGQNVGTSVAWYQQKPGHSPKSLIYSASYRYSGVPNRFTGSGSGTDFTLTISNVQSEDLADYFCQQYITYPYTFGGGTKLEII; 79

Given SC27.108 mouse monoclonal anti-CLDN antibody (antibody, V domains shown, also called SC27.109 (identical)) VH: QVQMQQSGAELVRPGTSVKVSCKASGYAFTNYLIEWVKQRPGQGLEWIGLINPGSGGTNYNEKFKGKATLTADKSSTTAYMQLSSLTSDDSAVYFCARRSPLGSWIYYAYDGVAYWGQGTLVTVSA VL: EIVLTQSPALMAASPGEKVTITCSVSSSISSSNLHWYQQKSGTSPKLWIYGTSNLASGVPVRFSGSGSGTSYSLTISNMEAEDAATYYCQQWSSYPHTFGGGTKLEIK , state its recorded MFI.
88
